# tested.system: Cytochrome P450 2C19 (Homo sapiens) (UniProt P33261)
# Sequence (P33261 whole entry, looked up): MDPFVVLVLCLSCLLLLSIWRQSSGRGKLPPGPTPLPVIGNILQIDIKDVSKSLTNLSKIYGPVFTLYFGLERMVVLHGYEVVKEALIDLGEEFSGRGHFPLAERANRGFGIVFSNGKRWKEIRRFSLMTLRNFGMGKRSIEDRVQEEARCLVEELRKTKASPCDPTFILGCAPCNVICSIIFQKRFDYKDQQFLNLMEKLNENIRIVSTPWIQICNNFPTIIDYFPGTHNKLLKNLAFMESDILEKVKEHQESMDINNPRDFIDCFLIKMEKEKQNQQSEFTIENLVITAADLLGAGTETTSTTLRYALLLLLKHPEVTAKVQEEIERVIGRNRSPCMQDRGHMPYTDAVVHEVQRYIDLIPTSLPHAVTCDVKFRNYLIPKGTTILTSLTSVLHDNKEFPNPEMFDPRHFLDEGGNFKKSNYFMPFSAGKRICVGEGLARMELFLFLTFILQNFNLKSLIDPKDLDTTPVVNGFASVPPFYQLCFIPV
# experimental.protocol: Cytochrome P450 Family 2 Subfamily C Member 19 (CYP2C19) small molecule antagonists: luciferase reporter qHTS assay (AID 1671197); further: nearly all actives have a fitted effect of over 65% in size
# test.context: P450-Glo CYP2C19 enzyme, luciferin luminescence, 1 h; series mostly up to 115 µM
Records with an inconclusive call do not appear. Calls of active or inactive are those of the source. The call rests on the fitted dose curve; in most records, active means well fitted inhibition curve with a large enough effect in the repeat runs; inconclusive means weak or mixed curves; inactive means no such curve, though single readings can be large or run the other way.
Outcomes: active, inactive

Cc1cccc2n[nH]nc12 | inactive
CC(C)(c1ccccc1)c1ccc(Nc2ccc(C(C)(C)c3ccccc3)cc2)cc1 | inactive
NC(N)=Nc1nc(CSCC/C(N)=N/S(N)(=O)=O)cs1 | inactive
CC(=O)O[C@]1(C(C)=O)CC[C@H]2[C@@H]3C[C@H](C)C4=CC(=O)CC[C@]4(C)[C@H]3CC[C@@]21C | active
Nc1nc2ccccc2[nH]1 | inactive
C=CS(=O)(=O)O | inactive

----------
# experimental.protocol: qHTS RealTime-Glo MT Cell Viability Assay in HEK293 cells - 32 hour (AID 1224868); further: nearly all actives have a fitted effect of over 50% in size
# test.context: RealTime-Glo luminescence; series mostly up to 76.8 µM
Records with an inconclusive call do not appear. Activity calls are given as the source filed them. The call rests on the fitted dose curve; in most records, active means well fitted cell-killing curve with a large enough effect in the repeat runs; inconclusive means weak or mixed curves, or effect the other way; inactive means flat fitted curve, though single readings scatter.
Labels: active, inactive

O=C(OCc1ccccc1)c1ccc(O)cc1 | inactive
Cc1ccc(S(=O)(=O)Oc2ccc(N=Nc3ccc(-c4ccc(N=Nc5c(O)ccc6cc(S(=O)(=O)O)cc(S(=O)(=O)O)c56)c(C)c4)cc3C)cc2)cc1 | inactive
Cc1scc2c1N(C(=O)CN1CCN(C)CC1)c1ccccc1NC2=O | inactive
O=C1OC2(c3ccc(O)cc3Oc3cc(O)ccc32)c2ccccc21 | inactive
Cc1c(O)cccc1C(=O)N[C@@H](CSc1ccccc1)[C@H](O)CN1C[C@H]2CCCC[C@H]2C[C@H]1C(=O)NC(C)(C)C | active
Cc1cccc2n[nH]nc12 | inactive
CC(=O)CC(=O)Nc1ccc2[nH]c(=O)[nH]c2c1 | inactive

----------
# tested.system: Thyrotropin receptor (Homo sapiens) (UniProt P16473)
# Sequence (P16473 whole entry, looked up): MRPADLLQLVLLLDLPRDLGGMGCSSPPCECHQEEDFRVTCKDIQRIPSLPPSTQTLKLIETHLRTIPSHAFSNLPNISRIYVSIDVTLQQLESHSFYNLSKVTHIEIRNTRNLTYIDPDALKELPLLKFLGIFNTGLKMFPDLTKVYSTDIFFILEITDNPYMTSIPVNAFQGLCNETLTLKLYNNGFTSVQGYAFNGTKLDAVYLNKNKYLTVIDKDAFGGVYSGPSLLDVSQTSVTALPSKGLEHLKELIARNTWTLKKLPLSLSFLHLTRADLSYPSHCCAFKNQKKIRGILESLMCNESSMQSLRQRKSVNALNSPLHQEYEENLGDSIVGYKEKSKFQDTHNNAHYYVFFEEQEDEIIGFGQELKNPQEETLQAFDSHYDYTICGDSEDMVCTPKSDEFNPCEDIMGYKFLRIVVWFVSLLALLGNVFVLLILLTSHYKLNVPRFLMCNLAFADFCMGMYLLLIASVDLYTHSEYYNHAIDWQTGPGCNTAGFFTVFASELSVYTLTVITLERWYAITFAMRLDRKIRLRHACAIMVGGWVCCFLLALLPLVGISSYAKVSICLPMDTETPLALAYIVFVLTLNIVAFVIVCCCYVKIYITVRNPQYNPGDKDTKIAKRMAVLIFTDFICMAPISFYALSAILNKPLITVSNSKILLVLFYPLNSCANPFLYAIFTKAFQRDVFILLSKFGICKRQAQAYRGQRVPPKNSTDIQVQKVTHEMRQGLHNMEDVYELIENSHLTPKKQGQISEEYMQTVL
# experimental.protocol: qHTS assay to identify small molecule agonists of the thyroid stimulating hormone receptor (TSHR) signaling pathway (AID 1224843); further: on the % scale 0 is the no-effect control and ±100 the full control effect; nearly all actives have a fitted effect of over 45% in size
# test.context: TSHR-HEK293 cells, cAMP HTRF, agonist mode, 30 min; series mostly up to 92.4 µM
Records with an inconclusive call do not appear. Active and inactive are the calls of the source. Calls follow the shape of the full dose curve.
measure: activation

CC1COc2c(N3CCN(C)CC3)c(F)cc3c(=O)c(C(=O)O)cn1c23 (stereo not drawn) | inactive
Cc1cccc2n[nH]nc12 | inactive
CC(C)CCOC(=O)c1ccc(N(C)C)cc1 | inactive
CCOc1ccc2c(c1)C(C)=CC(C)(C)N2 | inactive
COc1nc(C)nc(Cl)c1NC1=NCCN1 | inactive
C#CC(C)(CC)OC(=O)c1ccccc1C(=O)O (stereo not drawn) | inactive
CCCCC/C=C/CC1CC(=O)OC1=O (stereo not drawn) | inactive
COC(=O)[C@H]1[C@H]2C[C@@H]3c4[nH]c5cc(OC)ccc5c4CCN3C[C@H]2C[C@@H](OC(=O)c2cc(OC)c(OC)c(OC)c2)[C@@H]1OC | inactive
CC(=O)Nc1ccc(C(=O)CCl)cc1 | inactive
CCC(=O)/C=C/C1C(C)=CCCC1(C)C (stereo not drawn) | inactive
CCCCOCCOC(=O)c1ccccc1C(=O)OCCOCCCC | inactive
CC(C)(c1ccccc1)c1ccc(Nc2ccc(C(C)(C)c3ccccc3)cc2)cc1 | inactive
CCC[C@H](N[C@@H](C)C(=O)N1[C@H](C(=O)O)C[C@@H]2CCCC[C@@H]21)C(=O)OCC | inactive
CCCNC(C)C(=O)Nc1ccccc1C (stereo not drawn) | inactive
COc1ccc(COC(C)=O)cc1 | inactive
NC(Cc1ccc(Cl)cc1)C(=O)O (stereo not drawn) | -0.308% [at 0.349 µM] (inactive)
Nc1cc(Cl)c(-c2cc(Cl)c(N)cc2Cl)cc1Cl | inactive
CC1=C(C=O)C(C)(C)CC=C1 | inactive
Oc1ccc(Cl)cc1Cc1cc(Cl)ccc1O | inactive
C=CC(=O)OCCCCCCCC | inactive
CC(C)(C)c1ccccc1 | inactive
O=C(Cl)c1cccc(C(=O)Cl)c1 | inactive
CC(N)=O | inactive
O=C(OCc1ccccc1)c1ccc(O)cc1 | inactive
NCCCCCC(=O)O | inactive
N[C@@H]1CONC1=O | inactive
C[N+]1([O-])CCOCC1 | inactive
CCCCCCCCCCCCCCCCCl | 0.927% [at 19 µM] (inactive)
